target: HLA-A*02:01 (Homo sapiens, UniProt P04439, D140Y/D185E/D98H/E176V/E277Q/G131W/G231S/I119V/I121R/I166T/I218V/L300P/L318F/N151K/N90K/P208A/P217A/Q86G/Q94H/R138H/R169H/T345S); construct: Plasmid DNA encoding the BirA tagged luminal domain of MHC-I heavy chains HLA-A*02:01; made in house; Drosophila S2 cells (TAPBPR); gTAX synthetic (Genscript); format: binding; conditions: p/HLA-A*02:01 prepared by TAPBPR-mediated peptide exchange, 10-fold molar excess of peptide, overnight 4° C.; DSF first derivative; ± SD of 3 replicates
Endpoint label: Tm
The answer should read as a number with its unit following.

Entry under review: ALNTLVKQL [Peptide 1] . Reported Tm?
48.3 ± 0.6 °C

// query: NLNESLIDL [Peptide 4]
47.3 ± 0.6 °C

// query: GMSRIGMEV [Peptide 8]
48.3 ± 0.0 °C

// query: VLQLPQGTTL [Peptide 21]
39.4 ± 0.0 °C

// query: SMWALIISV [Peptide 25]
52.3 ± 0.6 °C

// query: ILLNKHIDA [Peptide 16]
43.4 ± 0.0 °C

// query: SLPGVFCGV [Peptide 11]
59.3 ± 0.0 °C

// query: RLNEVAKNL [Peptide 3]
46.3 ± 0.6 °C

// query: LALLLLDRL [Peptide 27]
43.3 ± 1.5 °C

// query: LLLQYGSFC [Peptide 31]
47.3 ± 0.6 °C

// query: GLMWLSYFI [Peptide 6]
41.4 ± 7.9 °C

// query: ALNTPKDHI [Peptide 26]
44.4 ± 0.6 °C

// query: VLNDILSRL [Peptide 2]
50.3 ± 0.0 °C

// query: KLPDDFTGCV [Peptide 13]
53.3 ± 0.0 °C

// query: LLLLDRLNQL [Peptide 22]
42.4 ± 0.6 °C

// query: GLIAIVMVTI [Peptide 23]
40.4 ± 0.6 °C
